assay: Area under curve (0-24 hr) upon oral administration of 10 mg/kg of dose in a dosing vehicle of 10/10/80 cremaphor/DMSO/water; assay type: ADME, organism-based; set-up: time < 24 hr, dose 10 mg/kg, route oral; conditions: in vivo
measurement_label: AUC(0-t) at 24 h (ng·h/mL)
Output spec: scalar in ng·h/mL, unitless text.

Task: # lookup: AUC(0-t) at 24 h of `CCCN(CC1CC1)C(=O)c1c(CC)nc2n1CCN2c1c(C)cc(C)cc1C`
Output: 1520

====

Target protein (sequence): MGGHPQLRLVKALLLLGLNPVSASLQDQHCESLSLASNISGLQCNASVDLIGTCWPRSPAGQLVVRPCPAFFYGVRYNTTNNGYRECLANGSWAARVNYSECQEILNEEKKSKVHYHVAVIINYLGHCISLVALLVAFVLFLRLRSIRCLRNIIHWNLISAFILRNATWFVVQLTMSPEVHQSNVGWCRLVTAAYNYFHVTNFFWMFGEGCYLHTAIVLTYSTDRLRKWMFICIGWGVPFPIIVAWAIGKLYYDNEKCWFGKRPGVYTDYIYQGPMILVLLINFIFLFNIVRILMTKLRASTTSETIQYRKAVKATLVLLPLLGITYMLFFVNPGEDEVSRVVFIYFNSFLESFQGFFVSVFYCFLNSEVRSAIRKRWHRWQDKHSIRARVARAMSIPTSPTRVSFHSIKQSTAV
measurement_label: Ki (µM)
A number alone suffices; assume µM.

Task: Returns the measured Ki for the input compound. Input: `CCc1nc2n(c1C(=O)N(CCC(F)(F)F)Cc1ccccc1)CCN2c1c(C)cc(C)cc1C`
Output: 0.66

Task: Continue with `CCc1nc2n(c1C(=O)N(CC)CCC1CC1)CCN2c1c(C)cc(C)cc1C`
Output: 0.61

Task: One more compound: `CCCN(Cc1cccc(F)c1)C(=O)c1c(CC)nc2n1CCN2c1c(C)cc(C)cc1C`
Output: 4.2

Task: Cool, now `CCCCN(CC)C(=O)c1c(CC)nc2n1CCN2c1c(C)cc(C)cc1C`
Output: 0.29

Task: Please give the result for `CCc1nc2n(c1C(=O)N(CCC(F)(F)F)Cc1ccc(Cl)cc1)CCN2c1c(C)cc(C)cc1C` too.
Output: 0.27

Task: Quick one: `CCCN(CCC1CC1)C(=O)c1c(CC)nc2n1CCN2c1c(C)cc(C)cc1C`
Output: 0.77
